Test system: SNB-75
Assay: NCI tumour cell line growth inhibition, 48 h
Active and inactive are the calls of the source. Cut-off read from the data, not from the text of the source: active = GI50 up to about 1.1 µM and inactive = higher.
readout: GI50

> print(dat)
                                   compound  measurement.target       measured.value
1  CC(O)(CNS(=O)(=O)c1ccccc1)c1ccccc1 (stereo unspecified)              SNB-75  > 100 µM (inactive)
2    CC(C)=CC(=O)Cc1nc2cc(C)c(C)cc2[nH]c1=O              SNB-75  > 100 µM (inactive)
3  Cc1ccc(C2=C(c3ccccc3)C(=O)C(c3ccccc3)=C2c2ccc(C)cc2)cc1              SNB-75   87.3 µM (inactive)
4  O=C(N/N=C\c1cccc2ccccc12)Nc1ccc([N+](=O)[O-])cc1              SNB-75   38.9 µM (inactive)
5  C[C@]12CC[C@@H]3c4ccc(O)cc4CC[C@H]3[C@@H]1C/C(=C\c1ccc([N+](=O)[O-])cc1)C2=O              SNB-75   50.7 µM (inactive)
6       O=C(/C(=C/c1cccs1)c1ccccc1)c1ccccc1              SNB-75   37.7 µM (inactive)
